# Tested on: P388 leukemia ip, CD2F1 mice, survival T/C
# Protocol details: NCI In Vivo Anticancer Drug Screen. Data for tumor model P388 Leukemia (intraperitoneal) in CD2F1 (CDF1) mice
# Reported conditions: endpoint: median survival time; dose: 50.0 mg/kg/injection; schedule: Q01DX005 (ip); vehicle: Klucel (hydroxypropylcellulose) (HPC); higher = longer survival
Inconclusive results and toxic doses are left out.
Value type: T/C

Below are worked cases with known answers.
Compound | T/C
Cc1nc2c(cnn2C)c(=O)[nH]1 | 96 % of control
CCCCN(CCCC)CCCNC(c1ccc(N(C)C)cc1)c1ccc(N(C)C)cc1 | 104 % of control
CC(C)OCCCNCC(=O)Nc1ccc(S(=O)(=O)c2ccc(NC(=O)CNCCCOC(C)C)cc2)cc1 | 95 % of control
C=C(Cl)C(=NC(C)(C)C)Nc1ccccc1 | 102 % of control
COC(=O)C(CCCCNC(=O)OCc1ccccc1)NC(=O)C(Cc1ccccc1)NC(=O)OC(C)(C)C (stereo not drawn) | 99 % of control

Exam item: # T/C lookup, item `COc1ccc2c3c(c(=O)n(C)c2c1OC)C=CC(C)(C)O3`
Marked response: 100 % of control

Exam item: # T/C lookup, item `C=CC(=O)N(C)c1nc(N(C)C)nc(N(C)C)n1`
Marked response: 102 % of control

Exam item: # T/C lookup, item `OCCOc1ccc(OCCO)c2ccccc12`
Marked response: 103 % of control

Exam item: # T/C lookup, item `COc1ccccc1/C=C/C(=O)c1ccccc(=O)c1O`
Marked response: 104 % of control

Exam item: # T/C lookup, item `CCCN1C(C)=C(C#N)C2(C(=O)Nc3ccccc32)C(C#N)=C1C`
Marked response: 99 % of control

Exam item: # T/C lookup, item `O=C1OC(c2ccccc2)=N/C1=C\c1ccccc1O`
Marked response: 101 % of control

Exam item: # T/C lookup, item `CC(=O)C1=CC[C@H]2[C@@H]3C=CC4=CC(=O)CC[C@]4(C)[C@H]3C[C@@H](O)[C@]12C`
Marked response: 107 % of control

Exam item: # T/C lookup, item C=C(C)C1CC=C(C)/C(=N/NC(=O)c2cccnc2)C1 (stereo not drawn)
Marked response: 116 % of control

Exam item: # T/C lookup, item `O=C1N(Cl)C(=O)C2(c3ccccc3-c3ccccc32)N1Cl`
Marked response: 100 % of control

Exam item: # T/C lookup, item `Nc1ncnc2c1ncn2Cc1cccnc1`
Marked response: 98 % of control

Exam item: # T/C lookup, item CC(C)(C)OC(=O)NC(CC(=O)OCc1ccccc1)C(=O)ON1C(=O)CCC1=O (stereo not drawn)
Marked response: 106 % of control

Exam item: # T/C lookup, item `[CH3][Sn]([CH3])([n]1ccnc1)[n]1ccnc1`
Marked response: 120 % of control

Exam item: # T/C lookup, item `COc1cccc(/C=C/c2cc3c(cc2Br)OCO3)c1`
Marked response: 102 % of control

Exam item: # T/C lookup, item `O=C(CN=Cc1ccc(Cl)cc1Cl)NNC(=O)c1ccc(Cl)cc1Cl`
Marked response: 92 % of control

Exam item: # T/C lookup, item `Cc1nc(Nc2ccccc2)c2c(C)c[nH]c2n1`
Marked response: 100 % of control

Exam item: # T/C lookup, item `N#Cc1c(F)cccc1N(Cc1cccnc1)C(=S)Nc1ccc(Cl)c(Cl)c1`
Marked response: 110 % of control

Exam item: # T/C lookup, item CCOC(=O)C1(CC)CC(OCC)OC1=O (stereo not drawn)
Marked response: 100 % of control

Exam item: # T/C lookup, item COc1ccc(C)cc1N=NC1C(=O)N(C(=O)CC(=O)Nc2ccccc2Cl)N=C1C (stereo not drawn)
Marked response: 96 % of control
